Where these numbers come from: patent US11628160B2

Target: human V1a receptor (Homo sapiens, UniProt P37288)
Construct: host or cells: CHO cells
Sequence (P37288 whole entry): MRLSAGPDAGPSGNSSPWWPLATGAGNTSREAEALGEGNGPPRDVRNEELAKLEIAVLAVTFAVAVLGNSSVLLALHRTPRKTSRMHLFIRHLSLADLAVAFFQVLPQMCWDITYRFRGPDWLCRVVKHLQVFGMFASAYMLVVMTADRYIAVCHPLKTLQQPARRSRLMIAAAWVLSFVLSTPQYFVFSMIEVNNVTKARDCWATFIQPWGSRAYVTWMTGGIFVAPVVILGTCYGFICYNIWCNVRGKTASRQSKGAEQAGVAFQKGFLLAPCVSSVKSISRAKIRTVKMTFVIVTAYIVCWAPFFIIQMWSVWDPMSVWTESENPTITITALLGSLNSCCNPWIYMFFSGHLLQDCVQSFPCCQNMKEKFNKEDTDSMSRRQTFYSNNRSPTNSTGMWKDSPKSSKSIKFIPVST
Assay: Human vasopressin V1a receptor binding assay
Details: hV1a CHO cell line, competition with 1 nM 3H-AVP; read-out: V1a Ki
For each entry below, report its pKi value.
Give bare numbers, as −log10 of the molar value.

Worked cases, answers included:
Input: Specify pKi for COc1ccc(OC)c(CNC(=O)C(CCC(=O)N2CCN(C3CCCCC3)CC2)N2C(=O)C(N3C(=O)OCC3c3ccccc3)C2C=Cc2ccccc2)c1 (stereo not drawn) and stop.
Output: 9.41

Input: Specify pKi for O=C(NC1Cc2ccccc2C1)C(CCC(=O)N1CCN(C2CCCCC2)CC1)N1C(=O)C(N2C(=O)OCC2c2ccccc2)C1C=Cc1ccccc1 (stereo not drawn) [Example 221P] and stop.
Output: 8.96

--- query ---
Input: Specify pKi for C[C@@H](NC(=O)[C@H](CCC(=O)N1CCN(C2CCCCC2)CC1)N1C(=O)[C@@H](N2C(=O)OC[C@@H]2c2ccccc2)[C@H]1/C=C/c1ccccc1)c1cccc(C(F)(F)F)c1 [Example 221F] and stop.
Output: 8.98
